Each recorded value in this set is attributed to patent US20040053950A1.

# Test system: P. falciparum chloroquine-sensitive D6-strain
# assay name: In vitro drug susceptibility assay ([3H]-hypoxanthine incorporation), D6 strain
# Assay type: cell-based
# conditions used: Plasmodium falciparum; Table 4, D6; read-out: IC50 P. falciparum (D6)
measured attribute: IC50 (µg/mL)

Example entries begin here.
{"compound": "COC1CCCN[C@@H]1CC(=O)Cn1cnc2ccc3c(c2c1=O)OCO3 (some centres unmarked) [WR140085]", "observed value": 0.0129}
{"compound": "O=C(CC1NCCCC1O)Cn1cnc2cc(Br)c(Cl)cc2c1=O (centres unmarked) [Halofuginone]", "observed value": 0.00012}
{"compound": "O=C(C[C@H]1NCCCC1O)Cn1cnc2c(Cl)c(Cl)c(Cl)cc2c1=O (some centres unmarked) [WR222048]", "observed value": 0.00082}
{"compound": "O=C(C[C@H]1NCCCC1O)Cn1cnc2cc3c(cc2c1=O)OCO3 (some centres unmarked) [WR092103]", "observed value": 0.00238}
{"compound": "O=C(C[C@H]1NCCCC1O)Cn1cnc2cccc(Cl)c2c1=O (some centres unmarked) [WR139672]", "observed value": 0.00175}
{"compound": "COC1CCCN[C@@H]1CC(=O)Cn1cnc2cc3c(cc2c1=O)OCO3 (some centres unmarked) [WR090212]", "observed value": 0.0189}
{"compound": "O=C(C[C@H]1CCCCN1C(=O)c1ccccc1)Cn1cnc2ccccc2c1=O [WR059424]", "observed value": 0.291}
{"compound": "CCOC1CCCN[C@@H]1CC(=O)Cn1cnc2cc(Br)c(Cl)cc2c1=O (some centres unmarked) [WR221232]", "observed value": 0.00945}

[a] O=C(C[C@@H]1CCCCN1)Cn1cnc2ccccc2c1=O [WR059421]
[b] C=CCOC(=O)N1CCCC(OC)[C@H]1CC(=O)Cn1cnc2cc3c(cc2c1=O)OCO3 (some centres unmarked) [WR089904]
Ask: Given a and given b , which shows the smaller recorded IC50? Answer by quoting the chosen item's label.
Result: a
